The following binders are listed with their measured binding signal (nm) values.
target_system: T1, human galectin-10-His (recombinant human galectin-10 with TEV-cleavable N-terminal His-tag) (human)
T1 construct: SEC-MALLS: dimer in solution; also called Gal10-His; humanGal10-His
T1 chain: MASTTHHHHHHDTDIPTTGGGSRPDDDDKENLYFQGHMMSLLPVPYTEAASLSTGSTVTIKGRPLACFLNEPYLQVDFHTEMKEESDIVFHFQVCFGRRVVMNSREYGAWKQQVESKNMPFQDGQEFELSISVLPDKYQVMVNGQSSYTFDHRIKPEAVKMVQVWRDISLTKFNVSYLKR
test_details: BLI tandem on galectin-10-His; competitor: saturating 2F09 mIgG1 (10 ug/mL)
Report as a plain number; the unit nm is understood.

binder	value_units	binding signal (nm)
4E08 mouse IgG1 (antibody, V domains shown, VH on mouse IgG1 heavy chain constant domains (CH1-CH2-CH3), VL on mouse lambda light chain constant domain; also called 4E8; 4E08 mIgG1) VH: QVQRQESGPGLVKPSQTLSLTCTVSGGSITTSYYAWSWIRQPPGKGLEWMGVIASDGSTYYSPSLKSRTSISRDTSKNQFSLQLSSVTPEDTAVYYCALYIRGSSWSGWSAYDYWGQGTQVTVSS VL: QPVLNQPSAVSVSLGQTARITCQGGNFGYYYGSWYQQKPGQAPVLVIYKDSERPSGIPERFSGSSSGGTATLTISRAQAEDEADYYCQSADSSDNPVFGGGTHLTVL	nm	0.01

Next, consider the following binder.
Entry 6B06 mouse IgG1 (antibody, V domains shown, also called 6B06 mIgG1) VH: QVQRQESGPGLVKPSQTLSLTCTVSGGSITTNYYSWSWIRQPPGKGLEWIGYIAYSGSTSYSPSLKSRTSISRDTSNNQFSLQLSSVTPEDTAVYYCARSRSSPTTFGMDYWGKGTLVTVSS VL: SSALTQPSAVSVSLGQTARITCQGGNFGRYYVSWYTQKPGQAPVLVIYQDSERPTGIPERFSGSSSGDTATLTISGAQAEDEADYYCQSGTSSDNIVFGGGTHLTVL ; binding signal (nm) = 0
